assay: NCI Yeast Anticancer Drug Screen. Data for the rad50 strain (AID 155); conditions: S. cerevisiae rad50 strain growth inhibition; at 5.0 µM (retest, dose inferred, filed as 0.5)
Compounds without any hit were thinned out: in the full panel of roughly 79,000, 15% have a hit. Calls of active or inactive are those of the source. Rule as the data show it: active = growth inhibition above about 70%; inactive = the rest.
Tick one outcome: YES = active, NO = inactive

{"Compound": "NC(Cc1ccnnc1)C(=O)O (stereo not given)", "Class": "NO"}
{"Compound": "Cc1c(N=Nc2ccc(Br)cc2)c(-c2ccccc2)nn1C(N)=S", "Class": "NO"}
{"Compound": "c1ccc([Si](C[CH2][Sn]([c]2ccccc2)([c]2ccccc2)[c]2ccccc2)(c2ccccc2)c2ccc([Si](C[CH2][Sn]([c]3ccccc3)([c]3ccccc3)[c]3ccccc3)(c3ccccc3)c3ccccc3)cc2)cc1", "Class": "YES"}
{"Compound": "CCCN(CCC)C(=O)c1cccc2ccccc12", "Class": "NO"}
{"Compound": "Oc1ccc(O)c2c1CC=C(Cl)C2", "Class": "NO"}

[ask] What call does the record list for `Oc1ccc(C2CCCCC2)c(O)c1` ?
[reply] NO

[ask] What call does the record list for CC(C)=CCC(CC=C(C)C)c1ccncc1 (tested in a mixture with another compound) ?
[reply] NO

[ask] What call does the record list for `Cn1c(=O)c2c(ncn2-c2ccncc2)n(C)c1=O` ?
[reply] NO

[ask] What call does the record list for `O=C(O)c1c(-c2ccccc2)cc(-c2ccccc2)cc1-c1ccccc1` ?
[reply] YES

[ask] What call does the record list for `Cc1ccc2sc(=S)sc2c1` ?
[reply] NO

Where these numbers come from: PubChem BioAssay (NCI)
